// reported relative viability per item
# Test system: NCI-H2085
# procedure-details: relative viability (nuclei count vs DMSO), 5 days (fraction); higher = more cells survive
# setup-conditions: first compound 2 µM
Note: the reply should be a number with no unit written.

# molecule, relative viability
records = [
    ("Cc1csc(=NC2CCCCC2)n1/N=C/c1ccc(O)c(O)c1O [MIM1] + Nc1nc2[nH]cc(CCc3ccc(C(=O)N[C@@H](CCC(=O)O)C(=O)O)cc3)c2c(=O)[nH]1 [Pemetrexed] (partner 0.2 µM)", 0.885),
]

[ask] Could you share which relative viability value was measured for Cc1csc(=NC2CCCCC2)n1/N=C/c1ccc(O)c(O)c1O [MIM1] + Cc1nc(NC(=O)N2CCC[C@H]2C(N)=O)sc1-c1ccnc(C(C)(C)C(F)(F)F)c1 [Alpelisib] (partner 2 µM) ?
[reply] 0.984

[ask] Dear colleague, I am looking for the recorded relative viability of the following molecule: Cc1csc(=NC2CCCCC2)n1/N=C/c1ccc(O)c(O)c1O [MIM1] + COc1cccc2cc(-c3nc([C@H]4CC[C@H](C(=O)O)CC4)n4ncnc(N)c34)[nH]c12 [OSI-027] (partner 0.5 µM)
[reply] 0.712

[ask] Query: relative viability; subject: CN1CCN(CCOc2cc(OC3CCOCC3)c3c(Nc4c(Cl)ccc5c4OCO5)ncnc3c2)CC1 [Saracatinib] + CCNC(=O)c1noc(-c2cc(C(C)C)c(O)cc2O)c1-c1ccc(CN2CCOCC2)cc1 [Luminespib] (partner 0.01 µM)
[reply] 0.429

====

# System: LCLC-97TM1
# procedure-details: relative viability (nuclei count vs DMSO), 5 days (fraction); higher = more cells survive
# setup-conditions: first compound 0.6325 µM
readout-name: relative viability
Returns: the value as a bare number; no unit string appended.

# compound, target, relative viability
measured = [
    ("CN1CCN(CCOc2cc(OC3CCOCC3)c3c(Nc4c(Cl)ccc5c4OCO5)ncnc3c2)CC1 [Saracatinib] + O=C(CCCCCCC(=O)Nc1ccccc1)NO [Vorinostat] (partner 1 µM)", "LCLC-97TM1", 0.839),
    ("CN1CCN(CCOc2cc(OC3CCOCC3)c3c(Nc4c(Cl)ccc5c4OCO5)ncnc3c2)CC1 [Saracatinib] + CCNC(=O)c1noc(-c2cc(C(C)C)c(O)cc2O)c1-c1ccc(CN2CCOCC2)cc1 [Luminespib] (partner 0.01 µM)", "LCLC-97TM1", 0.725),
    ("CN1CCN(CCOc2cc(OC3CCOCC3)c3c(Nc4c(Cl)ccc5c4OCO5)ncnc3c2)CC1 [Saracatinib] + Cc1nc(NC(=O)N2CCC[C@H]2C(N)=O)sc1-c1ccnc(C(C)(C)C(F)(F)F)c1 [Alpelisib] (partner 2 µM)", "LCLC-97TM1", 0.357),
    ("CN1CCN(CCOc2cc(OC3CCOCC3)c3c(Nc4c(Cl)ccc5c4OCO5)ncnc3c2)CC1 [Saracatinib] + N=C(N)NC(=N)NCCc1ccccc1 [Phenformin] (partner 250 µM)", "LCLC-97TM1", 0.469),
]

Alright, here's another compound for you.
[ask] I'd like to know its relative viability. The compound in question is Cc1csc(=NC2CCCCC2)n1/N=C/c1ccc(O)c(O)c1O [MIM1] + NC(=O)Nc1cc(-c2cccc(F)c2)sc1C(=O)N[C@H]1CCCNC1 [AZD7762] (partner 0.2 µM)
[reply] 0.243
